experimental_protocol: endothelial E-selectin expression blockers – imaging, HUVEC, immunofluorescence, MLSMR starter and 10KST1 sets, primary screen (AID 487);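 also: signal is fraction of cell area covered by stained E-selectin grains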
condition_notes: HUVEC TNFalpha-induced E-selectin immunofluorescence imaging, at 2 µM; hits give high values
Record form. Attribute: inhibition. Fill in for each entry.
One number for each entry, in %.

These recorded examples may help you get a feel for the data.
compound=CCOc1ccccc1Nc1nc2ccccc2[nH]1 value_measured=2.9
compound=CCc1cc2c(NCCC(=O)O)ncnc2s1 value_measured=13.4

Provide the reported inhibition of each entry below, same order.
1. COc1ccccc1CNC(=O)C1CCN(S(=O)(=O)N2CCCCC2)CC1
2. COc1ccc(OC)c(NC(=O)CSc2nc3ccccc3c(=O)n2CCNC(C)=O)c1

[out]
1. -44.6
2. -17.6

Provide the reported inhibition of each entry below, same order.
1. Cc1cc(C)c2cc(CN(CC3CCCO3)C(=O)NC3CCCCC3)c(=O)[nH]c2c1 (configuration not stated)
2. O=C(CN1CCC(n2nnc3cc(F)ccc32)CC1)Nc1ccc2c(c1)CCC2

[out]
[-28.1, -84.4]

----------
experimental_protocol: inhibitors of TNFa-induced NFkB p65 translocation, primary screen, imaging, HUVEC, MLSMR starter and 10KST1 sets (AID 438);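 also: compound added about 3h40 before a 20 min TNFalpha stimulation; signal is the nuclear over cytoplasmic p65 intensity ratio per well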
condition_notes: HUVEC TNFa-induced p65 nuclear translocation; at 2 µM, hits give high values, 0% TNFa-plus-vehicle, 100% no-TNFa wells
Record form. Attribute: inhibition. Fill in for each entry.
One number for each entry, in %.

These recorded examples may help you get a feel for the data.
mol=Cc1cc(NC(=O)CSc2nnc(C3CC3)n2C)no1 attribute_measured=inhibition reading_unit=% value_measured=1.1
mol=CCN1CCN(Cc2ccc(NC(=O)Nc3ccc(SC)cc3)cc2)CC1 attribute_measured=inhibition reading_unit=% value_measured=-1.7
mol=CCn1c(=O)cc(SCC(=O)Nc2cccnc2)c2ccccc21 attribute_measured=inhibition reading_unit=% value_measured=-8.6
mol=O=c1c[n+]([O-])c2ccccc2n1OCc1ccccn1 attribute_measured=inhibition reading_unit=% value_measured=-0.8
mol=O=C(CSc1nc2ccccc2o1)N1CCN(c2ccc(Cl)cc2)CC1 attribute_measured=inhibition reading_unit=% value_measured=-0.5

// next entry
[in] Bench note: what inhibition did `COc1cc(-c2c(C#N)c(N)nc3c2CCCC3)cc(OC)c1OC` show?
[out] -8.6

----------
subject_of_test: Muscarinic acetylcholine receptor M4 (Homo sapiens)
experimental_protocol: M4-linked GIRK flux change, two-sided – cell-based, HEK293 M4/GIRK, thallium flux, BTC-AM, M4 allosteric agonist project, primary screen (AID 625);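 also: thallium influx through GIRK channels coupled to M4 in HEK293 cells with BTC-AM dye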
condition_notes: at 10 µM, actives lie on both sides
Each record gets a class by fluorescence slope: low: < 0.004; medium: ≥ 0.004 and < 0.005; high: ≥ 0.005

# count of solved cases: 5
mol=CCn1c(=O)cc(SCC(=O)Nc2ccc3c(c2)OCO3)c2ccccc21 subject_of_test="Muscarinic acetylcholine receptor M4 (Homo sapiens)" answer_label=high
mol=Cc1nnc(C)n1/N=C/c1cccc(Oc2ccccc2)c1 subject_of_test="Muscarinic acetylcholine receptor M4 (Homo sapiens)" answer_label=high
mol=Cc1ccc(SCCNS(=O)(=O)c2ccc(F)cc2)cc1 subject_of_test="Muscarinic acetylcholine receptor M4 (Homo sapiens)" answer_label=medium
mol=c1ccc2[nH]c(CSc3nnc(-c4ccncc4)o3)nc2c1 subject_of_test="Muscarinic acetylcholine receptor M4 (Homo sapiens)" answer_label=medium
mol=CCOC(=O)c1cc2c(=O)n3cccc(C)c3nc2n(CCc2ccccc2)c1=N subject_of_test="Muscarinic acetylcholine receptor M4 (Homo sapiens)" answer_label=low

[in] Hi, small favor: classify `O=C(CN1C(=O)COc2ccccc21)NCCCN1CCc2ccccc2C1` by its fluorescence slope when you get a moment.
[out] high
